Reported Inhibition rate (%) is given for each of the following binders.
Biological target: T1, LAG-3-hFc protein (human LAG-3 extracellular region with hFc tag) (human, UniProt P18627 23-450)
T1 construct: also called hLAG-3-hFc; LAG-3 protein; not shown: human IgG Fc fragment (hFc) of the pCpC vector
T1 sequence: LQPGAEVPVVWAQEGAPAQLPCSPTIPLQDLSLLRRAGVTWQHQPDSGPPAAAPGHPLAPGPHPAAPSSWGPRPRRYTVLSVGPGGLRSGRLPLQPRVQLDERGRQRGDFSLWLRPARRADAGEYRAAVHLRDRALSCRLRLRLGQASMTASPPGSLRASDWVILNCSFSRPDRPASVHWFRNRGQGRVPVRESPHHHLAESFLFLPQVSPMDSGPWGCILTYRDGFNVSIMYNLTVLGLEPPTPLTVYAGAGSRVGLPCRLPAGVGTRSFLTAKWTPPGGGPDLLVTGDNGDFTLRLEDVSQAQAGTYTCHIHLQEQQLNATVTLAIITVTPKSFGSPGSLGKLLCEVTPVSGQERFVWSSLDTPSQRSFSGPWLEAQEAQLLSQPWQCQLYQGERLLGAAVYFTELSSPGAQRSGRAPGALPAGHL
Experiment: FACS, inhibition of LAG-3-hFc binding to MHC II on Raji cells, antibody 0.823 nM
Experimental: The FACS reaction plate incubating the Raji cells was centrifuged to discard the supernatant. The above mixture was added as 100 μl per well to Raji cells and incubated on ice for 1-2 hours. […] The plate was washed 2-3 times by centrifugation with blocking solution (PBS, 2% fetal bovine serum), added with 100 microliters of PBS per well to suspend cells, and detected using FACS (FACS Calibur, BD) and the results were analyzed. […]
Just the number please, in %, no unit attached.

556F6B8 mouse-human chimeric antibody (antibody, V domains shown, also called mAb123-556F6B8; 556F8B8) VH: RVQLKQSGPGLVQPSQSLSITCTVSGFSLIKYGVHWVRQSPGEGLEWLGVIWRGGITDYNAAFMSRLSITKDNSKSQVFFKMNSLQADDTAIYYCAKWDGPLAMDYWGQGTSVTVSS VL: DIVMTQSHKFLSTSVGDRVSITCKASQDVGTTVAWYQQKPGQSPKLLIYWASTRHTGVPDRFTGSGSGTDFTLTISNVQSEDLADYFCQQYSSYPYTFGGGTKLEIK ... 29.7

Now look at this one.
Request: May I ask what Inhibition rate (%) has been recorded for 105F1E10 mouse-human chimeric antibody (antibody, V domains shown, also called mAb009-105F1E10) VH: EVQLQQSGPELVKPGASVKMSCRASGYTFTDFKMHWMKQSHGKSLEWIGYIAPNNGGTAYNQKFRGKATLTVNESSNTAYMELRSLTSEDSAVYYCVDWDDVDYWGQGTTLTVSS VL: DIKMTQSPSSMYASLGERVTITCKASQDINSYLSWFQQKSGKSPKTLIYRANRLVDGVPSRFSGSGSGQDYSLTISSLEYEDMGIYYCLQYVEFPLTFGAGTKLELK ?
Response: -0.3
